The reader will find reported Ratio over Background values listed item by item below.
molecular target: T1, Insulin receptor prepared according to Bass et al., 1996: soluble human insulin receptor-immunoglobulin heavy … (human, UniProt P06213 28-956); test: phage ELISA vs milk
T1 construct: extracellular domain; Eu3+-labelled in TR-FRET; also called IR; sIR-Fc; not shown: immunoglobulin heavy chain constant domains that replace the transmembrane and i
Positions of bridges follow the written chain, without caps; N, C: chain ends. No end group written: not given here.
// note: answer is a bare numeric in fold

Solved entries (count: 6):
FYVQQWGHENFYDWFDRQVSQSGGAG [H2CA-4-F1-IGFR]    0.9
RAGSSDFHEDFYEWFVRQVSLSLKGK [H2CA-2-B9-IGFR]    1.7
SGAKVIVVTGDSGDPFYHKLSELLQGS [B6Eα-2-C10-IR]    1.1
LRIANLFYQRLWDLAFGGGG [20E22-3-E8-IGFR]    1.5
APDPSDFQEIFYDWFVRQVSRMPGGG [H2CA-1-A3-IGFR]    0.8
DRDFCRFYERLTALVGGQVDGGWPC (disulfide 5-25 (inferred)) [20C-3-F6-IGFR]    1.9

Return Ratio over Background (reported value) for this binder: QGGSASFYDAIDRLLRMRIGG [20E2A-4-F11-IGFR]
1.3

Identify measured Ratio over Background corresponding to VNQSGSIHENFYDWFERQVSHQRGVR [H2CA-4-F1O-IGFR]
1

Identify measured Ratio over Background associated with LGVTDGFYAALGYLIHGVGQF [20E2B-3-D11-IGFR]
1.6

Specify reported Ratio over Background for the binder shown: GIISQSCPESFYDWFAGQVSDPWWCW [H2CA-4-G9-IGFR]
0.6

Note down Ratio over Background recorded for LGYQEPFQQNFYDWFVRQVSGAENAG [E2CA-3-E8-IGFR]
2.2

Return value of Ratio over Background for input LSVALSFYDALGQLVAGEGRW [20E2A-3-A12-IGFR] , no commentary.
1.1

Determine its reported Ratio over Background: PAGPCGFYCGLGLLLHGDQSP (disulfide 5-9 (inferred)) [20E2B-4-H8-IGFR]
0.9

Supply recorded Ratio over Background for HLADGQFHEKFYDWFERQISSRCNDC [H2CA-3-E11-IGFR] here.
1
